All values here come from patent US7452885B2.

Target: human BACE1 (Homo sapiens, UniProt P56817)
Sequence (P56817 46-501): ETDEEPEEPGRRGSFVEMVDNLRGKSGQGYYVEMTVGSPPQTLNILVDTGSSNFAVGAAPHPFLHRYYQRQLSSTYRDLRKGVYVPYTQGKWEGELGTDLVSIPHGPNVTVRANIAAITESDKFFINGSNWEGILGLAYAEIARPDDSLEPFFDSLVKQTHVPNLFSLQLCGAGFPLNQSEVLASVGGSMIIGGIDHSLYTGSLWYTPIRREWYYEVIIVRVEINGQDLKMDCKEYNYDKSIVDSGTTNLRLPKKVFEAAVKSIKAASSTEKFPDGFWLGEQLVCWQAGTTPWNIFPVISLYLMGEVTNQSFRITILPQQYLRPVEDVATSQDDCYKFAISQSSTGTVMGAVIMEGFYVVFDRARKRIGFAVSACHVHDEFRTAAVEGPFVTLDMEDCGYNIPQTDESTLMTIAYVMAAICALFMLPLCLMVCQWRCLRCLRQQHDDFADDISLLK
Assay: Fluorescent kinetic assay, BACE-1 (Example 114)
Type: biochemical
Conditions: 10 nM human BACE1, 25 μM substrate WABC-6, 50 mM Na-Acetate pH 4.5, room temperature; read-out: BACE-1 (IC50 μM)
assay metric: IC50

Before answering, review these 3 worked examples.
CCc1cc(C2(c3cccc(-c4ccc(F)nc4)c3)N=C(N)N(C)C2=O)cc(CC)n1 (stereo not shown) [Example 93]
0.11 to 1 µM
CCc1cc([C@]2(c3cccc(-c4ccc(F)nc4)c3)N=C(N)N(C)C2=O)cc(CC)n1 [Example 108B]
0.01 to 0.1 µM
CN1C(=O)C(c2ccncc2)(c2cccc(O)c2)N=C1N (stereo not shown) [Example 51]
> 1 µM

Exercise: Would you mind telling me what IC50 value was observed for CCc1cc(C2(c3ccc(F)c(-c4cncc(F)c4)c3)N=C(N)N(C)C2=O)cc(CC)n1 (stereo not shown) [Example 104] ?
Solution: 0.01 to 0.1 µM

Exercise: Then what about the compound CN1C(=O)C(c2cccc(-c3cccnc3)c2)(c2ccnc(Cl)c2)N=C1N (stereo not shown) [Example 89] ?
Solution: 0.01 to 0.1 µM

Exercise: Then what about the compound CCc1cc(C2(c3cccc(-c4cc(F)ccc4F)c3)N=C(N)N(C)C2=O)cc(CC)n1 (stereo not shown) [Example 92] ?
Solution: 0.11 to 1 µM

Exercise: Then what about the compound CCc1cc(C2(c3cccc(-c4cccnc4)c3)N=C(N)N(C)C2=O)cc(C)n1 (stereo not shown) [Example 83] ?
Solution: 0.11 to 1 µM

Exercise: Then what about the compound CCc1cc([C@@]2(c3cccc(-c4ccc(F)nc4)c3)N=C(N)N(C)C2=O)cc(CC)n1 [Example 108A] ?
Solution: > 1 µM

Exercise: Then what about the compound CCc1cc(C2(c3cccc(-c4cnccn4)c3)N=C(N)N(C)C2=O)cc(C)n1 (stereo not shown) [Example 86] ?
Solution: 0.11 to 1 µM

Exercise: Then what about the compound COc1ncc(C2(c3cccc(-c4cncnc4)c3)N=C(N)N(C)C2=O)c(OC)n1 (stereo not shown) [Example 97] ?
Solution: > 1 µM
